Assay: Shake-flask octanol-water Log D7.4
Type: physicochemical
Conditions: pH 7.4, octanol-water shake-flask

# molecule, logD
records = [
    ("O=C1Nc2ccccc2/C1=N/Nc1cc(Cl)cc(Cl)c1 [NEU-2117]", "> 3.7"),
    ("O=C1Nc2ccccc2C1=NNc1ccccc1 [NEU-2116, (Z)-3-(2-Phenylhydrazono)indolin-2-one]", "> 3.8"),
    ("COc1ccc(N/N=C2\\C(=O)Nc3ccccc32)cc1 [NEU-2114]", "> 3.3"),
]
